This listing pairs compounds with measured pIC50.
target.of.assay: TGFBR1 (ALK5) (Homo sapiens (Human))
test: LanthaScreen Eu Kinase Binding Assay TGFBR1 (ALK5) (ThermoFisher SelectScreen)
protocol.conditions: 3-fold serial dilutions 10,000 nM to 0.316 nM; ALK5 5 nM, Tracer #178 5 nM; sigmoidal dose response curve fit; read-out: TβRI (ALK5) Binding IC50
pIC50: −log10 of the molar value. Counter-ions that a name gives are not always drawn.

{"compound": "Cn1ccc(-c2nc[nH]c2-c2ccc3ncsc3c2)n1", "pIC50": 8.33}
{"compound": "N#Cc1cccc(NCc2nc(-c3ccn(C(F)F)n3)c(-c3ccc4nccnc4c3)[nH]2)c1", "pIC50": 8.18}
{"compound": "Cn1ccc(-c2nc(-c3ccc(C(N)=O)cc3)[nH]c2-c2ccc3ncsc3c2)n1", "pIC50": 8.25}
{"compound": "CC(C)n1ccc(-c2nc(CNc3cc(F)cc(F)c3)[nH]c2-c2ccc3ncnn3c2)n1 [Compound 36, hydrochloride]", "pIC50": 6.99}
{"compound": "CC(C)n1ccc(-c2nc(CNc3ccccc3F)[nH]c2-c2ccc3nccnc3c2)n1", "pIC50": 6.89}
{"compound": "Cn1ccc(-c2nc(CNc3ccccc3)[nH]c2-c2ccc3ncnn3c2)n1 [Compound 4, hydrochloride]", "pIC50": 5.86}
{"compound": "Fc1cc(F)cc(NCc2nc(-c3ccn(C4CC4)n3)c(-c3ccc4nccnc4c3)[nH]2)c1", "pIC50": 8.92}
{"compound": "CC(C)n1ccc(-c2nc(CNc3ccc(Cl)c(Cl)c3)[nH]c2-c2ccc3nccnc3c2)n1", "pIC50": 6.59}
{"compound": "Cn1ccc(-c2nc(CNc3ccc(F)cc3)[nH]c2-c2ccc3ncnn3c2)n1 [Compound 8, hydrochloride]", "pIC50": 6.09}
{"compound": "CC(C)n1ccc(-c2nc(CNc3cccc(C#N)c3)[nH]c2-c2ccc3nccnc3c2)n1", "pIC50": 7.48}
{"compound": "N#Cc1ccc(-c2nc(-c3ccn(C(F)F)n3)c(-c3ccc4ncsc4c3)[nH]2)cc1", "pIC50": 7.14}
{"compound": "CC(C)n1ccc(-c2nc(-c3ccc(C(N)=O)cc3)[nH]c2-c2ccc3nccnc3c2)n1", "pIC50": 6.05}
{"compound": "Fc1cc(F)cc(NCc2nc(-c3ccn(C4CC4)n3)c(-c3ccc4ncnn4c3)[nH]2)c1", "pIC50": 8.52}
{"compound": "Cc1nc(-c2ccn(C)n2)c(-c2ccc3ncsc3c2)[nH]1", "pIC50": 8.18}
{"compound": "CC(C)n1ccc(-c2nc(CNc3cccc(F)c3)[nH]c2-c2ccc3ncc(C(N)=O)n3n2)n1", "pIC50": 7.31}
{"compound": "CCNC(=O)c1ccc(-c2nc(-c3ccn(C)n3)c(-c3ccc4ncsc4c3)[nH]2)cc1", "pIC50": 7.34}
{"compound": "Cn1ccc(-c2nc(CNc3cccc(F)c3)[nH]c2-c2ccc3ncnn3c2)n1 [Compound 6, hydrochloride]", "pIC50": 6.45}
{"compound": "Cn1ccc(-c2nc(C(N)=O)[nH]c2-c2ccc3ncsc3c2)n1", "pIC50": 7.34}
{"compound": "Cn1ccc(-c2nc[nH]c2-c2ccc3nccnc3c2)n1", "pIC50": 7.36}
{"compound": "NC(=O)c1ccc(-c2nc(-c3ccn(C(F)F)n3)c(-c3ccc4ncsc4c3)[nH]2)cc1", "pIC50": 8.12}
{"compound": "CN(C)C(=O)c1ccc(-c2nc(-c3ccn(C)n3)c(-c3ccc4ncsc4c3)[nH]2)cc1", "pIC50": 6.55}
{"compound": "Cn1ccc(-c2nc(-c3ccc(C(N)=O)cc3)[nH]c2-c2ccc3c(c2)OCO3)n1", "pIC50": 7.30}
{"compound": "CC(C)n1ccc(-c2nc(CNc3ccccc3)[nH]c2-c2ccc3ncnn3c2)n1 [Compound 10, hydrochloride]", "pIC50": 6.58}
{"compound": "Cn1ccc(-c2nc(CNc3ccccc3F)[nH]c2-c2ccc3ncnn3c2)n1 [Compound 2, hydrochloride]", "pIC50": 5.86}
{"compound": "CNC(=O)c1ccc(-c2nc(-c3ccn(C)n3)c(-c3ccc4ncsc4c3)[nH]2)cc1", "pIC50": 7.35}
{"compound": "CC(C)n1ccc(-c2nc(CNc3cccc(Cl)c3)[nH]c2-c2ccc3nccnc3c2)n1", "pIC50": 7.51}
{"compound": "Cc1cc(C(N)=O)cc(C)c1-c1nc(-c2ccn(C)n2)c(-c2ccc3ncsc3c2)[nH]1", "pIC50": 6.40}
{"compound": "CC(C)n1ccc(-c2nc(CNc3cc(F)cc(C(N)=O)c3)[nH]c2-c2ccc3nccnc3c2)n1", "pIC50": 7.11}
{"compound": "Fc1cccc(NCc2nc(-c3ccn(C(F)F)n3)c(-c3ccc4nccnc4c3)[nH]2)c1", "pIC50": 8.25}

====

target.of.assay: TGFBR1 (ALK5) (Homo sapiens (Human), UniProt P36897)
Sequence (P36897 34-503): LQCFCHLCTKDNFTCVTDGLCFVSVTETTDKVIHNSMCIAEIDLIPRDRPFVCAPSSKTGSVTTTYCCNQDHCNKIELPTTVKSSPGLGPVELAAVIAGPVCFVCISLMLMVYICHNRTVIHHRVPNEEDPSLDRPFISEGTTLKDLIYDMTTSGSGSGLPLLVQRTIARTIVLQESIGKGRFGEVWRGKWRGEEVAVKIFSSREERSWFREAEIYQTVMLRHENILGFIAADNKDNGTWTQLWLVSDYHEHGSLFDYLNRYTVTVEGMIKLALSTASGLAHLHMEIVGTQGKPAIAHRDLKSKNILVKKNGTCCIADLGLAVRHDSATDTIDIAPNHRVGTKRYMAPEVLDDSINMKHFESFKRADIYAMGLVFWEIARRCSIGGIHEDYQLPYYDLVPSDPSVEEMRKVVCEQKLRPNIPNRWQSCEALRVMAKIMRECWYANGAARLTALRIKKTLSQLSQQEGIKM
test: LanthaScreen Eu Kinase Binding Assay TGFBR1 (ALK5) (ThermoFisher SelectScreen)
protocol.conditions: compounds marked with an asterisk: evaluated at three concentrations; IC50 depicted as less than the lowest concentration producing >50% inhibition; read-out: TβRI (ALK5) Binding IC50
Where a name gives a salt, the structure may show the parent alone.
readout.type: IC50

{"compound": "Cn1ccc(-c2nc(CNc3ccccc3F)[nH]c2-c2ccc3ncccc3c2)n1 [Compound 31, hydrochloride]", "reported.measurement": "< 1000 nM"}
{"compound": "CC(C)n1ccc(-c2nc(CNc3ccc(F)c(F)c3)[nH]c2-c2ccc3nccnc3c2)n1 [Compound 48]", "reported.measurement": "< 100 nM"}
{"compound": "CC(C)n1ccc(-c2nc[nH]c2-c2ccc3nccnc3c2)n1 [Compound 53, hydrochloride]", "reported.measurement": "< 1000 nM"}
{"compound": "CC(C)n1ccc(-c2nc(CNc3cccc(C#N)c3)[nH]c2-c2ccc3ncnn3c2)n1 [Compound 28]", "reported.measurement": "< 100 nM"}
{"compound": "CC(C)n1ccc(-c2nc(CNc3cccc(C#N)c3)[nH]c2-c2ccc3ncc(C(N)=O)n3n2)n1 [Compound 38]", "reported.measurement": "< 100 nM"}
{"compound": "Cn1ccc(-c2nc(CNc3cccc(F)c3)[nH]c2-c2ccc3ncccc3c2)n1 [Compound 24]", "reported.measurement": "< 200 nM"}
{"compound": "CC(C)n1ccc(-c2nc(CNc3cc(F)ccc3F)[nH]c2-c2ccc3nccnc3c2)n1 [Compound 45]", "reported.measurement": "< 100 nM"}
{"compound": "CC(C)n1ccc(-c2nc(CNc3cccc(F)c3)[nH]c2-c2ccc3ncc(C#N)n3n2)n1 [Compound 27]", "reported.measurement": "< 100 nM"}
{"compound": "CC(C)n1ccc(-c2nc(CNc3cccc(F)c3)[nH]c2-c2ccc3ncccc3c2)n1 [Compound 26, hydrochloride]", "reported.measurement": "< 100 nM"}
{"compound": "Cn1ccc(-c2nc(-c3ccc(C(N)=O)cc3)[nH]c2-c2ccc3nccnc3c2)n1 [Compound 43]", "reported.measurement": "< 100 nM"}
{"compound": "CC(C)n1ccc(-c2nc(CNc3cccc(-n4cccn4)c3)[nH]c2-c2ccc3nccnc3c2)n1 [Compound 40]", "reported.measurement": "< 100 nM"}
{"compound": "CC(C)n1ccc(-c2nc(CNc3cccc(C(N)=O)c3)[nH]c2-c2ccc3ncnn3c2)n1 [Compound 29]", "reported.measurement": "< 100 nM"}
{"compound": "Cn1ccc(-c2nc(CNc3cccc(C#N)c3)[nH]c2-c2ccc3ncnn3c2)n1 [Compound 16, hydrochloride]", "reported.measurement": "< 1000 nM"}
{"compound": "CC(C)n1ccc(-c2nc(CNc3ccccc3F)[nH]c2-c2ccc3ncccc3c2)n1 [Compound 33, hydrochloride]", "reported.measurement": "< 200 nM"}

====

target.of.assay: TGFBR1 (ALK5) (Homo sapiens (Human), UniProt P36897)
test: LanthaScreen Eu Kinase Binding Assay TGFBR1 (ALK5) (ThermoFisher SelectScreen)
protocol.conditions: compounds marked with an asterisk: evaluated at three concentrations; IC50 depicted as less than the lowest concentration producing >50% inhibition; read-out: TβRI (ALK5) Binding IC50
Structures can show the parent of a compound that is named as a salt.

{"molecule": "CC(C)n1ccc(-c2nc(CNc3cccc(F)c3)[nH]c2-c2ccc3ncnn3c2)n1 [Compound 20, hydrochloride]", "IC50": "< 100 nM"}
{"molecule": "CC(C)n1ccc(-c2nc(CNc3ccc(Cl)c(F)c3)[nH]c2-c2ccc3nccnc3c2)n1", "IC50": "< 1000 nM"}
{"molecule": "CC(C)n1ccc(-c2nc(CNc3cccc(F)c3)[nH]c2-c2ccc3nccnc3c2)n1 [Compound 22, hydrochloride]", "IC50": "< 100 nM"}
{"molecule": "Cn1ccc(-c2nc(-c3ccc(C#N)cc3)[nH]c2-c2ccc3nccnc3c2)n1", "IC50": "< 1000 nM"}
